Tested on: HOP-62 NSCLC
EXPERIMENT DESCRIPTION: NCI-60 one-dose screen, 48 h (100 = growth as untreated, 0 = no growth, -100 = all killed)
CONDITIONS USED: 10 µM
Compounds without any hit were thinned out: in the full panel of roughly 83,000, 20% have a hit.
Please respond with reported growth for every item in the list.
Give bare numbers, in %.

For every record below, what is its growth?
1. CC(C)(C)c1ccc(S(=O)(=O)Oc2ccc(NC(=O)C3CCCCC3)cc2)cc1
2. O=C(Cn1cc(CO)nn1)Nc1nc2ccccc2s1
3. Cc1cc(Cl)ccc1Nc1nc(C(F)(F)F)ccc1C(=O)N/N=C/c1c(Cl)cccc1Cl
4. COc1ccc(-c2csc(NC(=O)c3ccc(Cc4n[nH]c(=O)c5cccnc45)cc3)n2)cc1
5. CC(C)(C)c1nn(-c2ccccc2)c2c1CC1(CN2Cc2ccc(Cl)cc2)C(=O)c2ccccc2C1=O

88.7
101
-4.74
92
102

* * *

Please respond with reported growth for every item in the list.
System: NCI-H226 lung
EXPERIMENT DESCRIPTION: NCI-60 one-dose screen, 48 h (100 = growth as untreated, 0 = no growth, -100 = all killed)
CONDITIONS USED: 10 µM
Compounds without any hit were thinned out: in the full panel of roughly 83,000, 20% have a hit.
Numbers only, in %.

A selection of reference data follows.
CC(=O)Oc1cc(OC(C)=O)c2ccccc2c1OC(C)=O = 88.4
Nc1c(Br)cc(Br)c2c1[nH]c(=O)c1ccccc12 = 19.5
CCOC(=O)c1sc2ncnc(Nc3ccc(NC(=O)Nc4ccc(Cl)cc4)cc3)c2c1C = 87.3
COc1ccc(/C(C#N)=C/c2cccc(OC)c2OC)cc1 = 89
Cc1ccc(NCCN(C)CC(C)O)c2c(=O)c3ccccc3sc12 (centres undefined) = 66.1
CC(C)(C)c1ccc(S(=O)(=O)Oc2ccc(NC(=O)C3CCCCC3)cc2)cc1 = 45.4
COc1cc2c(Nc3ccc(S(N)(=O)=O)cc3)ncnc2c(OC)c1OC = 84.9
O=c1c(Br)ccc(Br)cc1Br = 97.5

For every record below, what is its growth?
1. O=C1/C=C/[C@@H](O)[C@@H]2C[C@@H](O)C[C@H]2/C=C/CCC[C@H](CCc2ccc(C(F)(F)F)cc2)O1
2. COc1cc(OC)c2c(=O)c(O)c(-c3ccccc3)oc2c1
3. CCOC(=O)/C(=C(\C)N)C1CC(=O)NC1=O (centres undefined)
4. CN1CCN(CCC(=O)Nc2cccc(-n3cc(-c4ccncc4)c(-c4ccc(Cl)c(O)c4)n3)c2)CC1
5. S=C1N(c2ccccc2)CN(C2CCCCC2)CN1c1ccccc1
6. COc1cc(-c2ccc[nH]2)[nH]c1/C=C1\N=C(C)C(C(=O)NC(C)C)=C1C

[0.477, 69.3, 97.3, 66.6, 98.7, 42.7]

* * *

Tested on: SNB-19 CNS
EXPERIMENT DESCRIPTION: NCI-60 one-dose screen, 48 h
CONDITIONS USED: 10 µM
Description: Growth inhibition of the SNB-19 human tumor cell line is measured as a screen for anti-cancer activity. Cells are grown in 96 well plates and exposed to the test compound for 48 hours. Compounds are tested at a single concentration, which is 10^-5 M for most compounds. The reported endpoint is percent growth (GI% or GIPRCNT), where numbers from 0 - 100% represent growth inhibition, and numbers from -100% - 0 represent cell death. For example, a value of 40 represents 60% growth inhibition. […]
The panel holds about 83,000 compounds, 20% with a hit somewhere; the sample as a whole holds those more often. Calls of active or inactive are those of the source. Rule for the calls: active = growth percent below 10; inactive = the rest.
Use one of these outcomes when replying: 1 for active, -1 for inactive

Consider the following illustrative entries.
CC1/C=C/C=C/C=C/C=C/C=C/C=C/C=C/C(O[C@@H]2O[C@H](C)[C@H](O)[C@@H](O)[C@@H]2N)CC(O)C(C(=O)O)C(O)CC(=O)CC(O)CC(O)CC(O)CC(=O)CCCC(=O)CC(=O)OC1C(C)CC(C)C(O)CC(=O)c1ccc(N)cc1 (some centres undefined) = 1
CCOC(=O)Cn1c(=O)c2sc3ncccc3c2n2nnc(-c3ccccc3)c12 = -1
Cc1ccc(-c2c3c(N)nc(-c4cccnc4)nc3nc3c2c(C)nn3-c2ccccc2)cc1 = -1

Please examine the following record next.
What did this assay record as the result for `COc1ccc(-c2nn(-c3cccc(Cl)c3)cc2-c2c(C#N)c(=O)n3[nH]c(-c4ccc(C)cc4)nc3c2C#N)cc1` ?
-1

* * *

Please respond with reported growth for every item in the list.
Test system: T-47D breast
EXPERIMENT DESCRIPTION: NCI-60 one-dose screen, 48 h (100 = growth as untreated, 0 = no growth, -100 = all killed)
CONDITIONS USED: 10 µM
About 83,000 compounds went through this panel and 20% of them were active in at least one assay; those are over-represented in the sample as a whole.
Numbers only, in %.

A selection of reference data follows.
COc1ccc(N(C)c2ncnc3occ(C)c23)cc1 = 67.1
CC(=O)Nc1ccc2c(c1)C(=O)c1cccc(C(=O)O)c1-2 = 99.3
CCOC(=O)c1sc2ncnc(Nc3ccc4c(cnn4C(=O)Nc4ccc(C)c(Cl)c4)c3)c2c1C = 101
O=C(N/N=C/c1c(Cl)cccc1Cl)c1ccccc1Nc1cccc(C(F)(F)F)c1 = 94.4
Oc1ccc(-c2[nH]c3ccccc3c2-c2nc3ccccc3o2)cc1 = 40

For every record below, what is its growth?
1. COc1cc2ncnc(NC3CCC(O)CC3)c2cc1OC (stereo unspecified)
2. CC(=O)Oc1cc(OC(C)=O)c2ccccc2c1OC(C)=O
3. Cc1ccc(C(SCC(N)C(=O)O)(c2ccc(C)cc2)c2ccc(C)cc2)cc1 (stereo unspecified)
4. CC(C)(C)OC(=O)N1CCc2c(sc3ncnc(N/N=C/c4ccccc4Br)c23)C1
5. Cc1cc(=O)n2nnc3cc(C(F)(F)F)ccc3n12
6. N#Cc1c(N)nc(-c2cc(F)cc(C(F)(F)F)c2)nc1-c1ccccc1F

80.3
61.4
27.2
41.5
116
49

* * *

System: EKVX NSCLC
EXPERIMENT DESCRIPTION: NCI-60 one-dose screen, 48 h (100 = growth as untreated, 0 = no growth, -100 = all killed)
CONDITIONS USED: 10 µM
The panel holds about 83,000 compounds, 20% with a hit somewhere; the sample as a whole holds those more often. Calls of active or inactive are those of the source. Rule for the calls: active = growth percent below 10; inactive = the rest.
Please respond with reported growth for every item in the list.

A selection of reference data follows.
CCNc1nc(C(F)(F)F)nc2c1sc(=S)n2-c1ccccc1 = 86.1% (inactive)
Cc1ccc(S(=O)(=O)N/N=C2\CCCc3ccccc32)cc1 = 93.6% (inactive)

For every record below, what is its growth?
1. O=C(CCCCC(=O)Oc1c(Cl)cc(Cl)cc1[N+](=O)[O-])Oc1c(Cl)cc(Cl)cc1[N+](=O)[O-]
2. Cc1cc(=O)n2nnc3cc(C(F)(F)F)ccc3n12

["93.2% (inactive)", "107% (inactive)"]

For every record below, what is its growth?
1. O=C(O)Cc1ccc(O)c(O)c1
2. CCCCCC(=O)O[C@]1(C(C)=O)CCC2C3CCC4=CC(=O)CC[C@]4(C)C3CC[C@@]21C (stereo partly specified)
3. CC(C)CCN(CCC(C)C)CC(=O)Nc1ccc(S(=O)(=O)c2ccc(NC(=O)CN(CCC(C)C)CCC(C)C)cc2)cc1
4. CC(C)c1cc(N=O)cc(C(C)C)c1O
5. Cc1c2c[n+](C(C)C)ccc2c(C)c2c1[nH]c1ccccc12

89.4% (inactive)
27.1% (inactive)
83.1% (inactive)
105% (inactive)
29.4% (inactive)

For every record below, what is its growth?
1. CC(CN(C)C)Oc1ccccc1NC1=C(Cl)C(=O)C(Nc2ccccc2OC(C)CN(C)C)=C(Cl)C1=O (stereo unspecified)
2. C[C@H]1[C@H](OC(=O)CCC(=O)O)O[C@@H]2O[C@]3(C)CC[C@H]4[C@H](C)CC[C@@H]1[C@@]24OO3

-71.7% (active)
29.2% (inactive)

* * *

System: SK-MEL-2 melanoma
EXPERIMENT DESCRIPTION: NCI-60 one-dose screen, 48 h (100 = growth as untreated, 0 = no growth, -100 = all killed)
CONDITIONS USED: 10 µM
This is part of a sample that, as a whole, favours compounds with a hit. Of some 83,000 tested, about 20% had one in any assay.
MEASURED QUANTITY: growth (%)
One number for each entry, in %.

A selection of reference data follows.
CCOC(=O)CSc1nc(-c2cc(OC)ccc2OC)cc(-c2ccc(OC)cc2)c1C#N = 84.3
COc1cc2c3c(n(C4CCNCC4)c(=O)c2cc1OC)-c1cc2c(cc1C3=O)OCO2 = 76.4
NC(=O)c1cccc(-n2ccc3cc(NC(=O)Nc4ccc(Cl)c(C(F)(F)F)c4)ccc32)n1 = 97.2

Fill in the blank: the reported growth of `CCOC(=O)c1cc(C(=O)c2cc(OC)c(OC)c(OC)c2)n2ccc(-c3cc[n+](CC(=O)c4cc(OC)c(OC)c(OC)c4)cc3)cc12` is ____.
101

These measurements were taken from PubChem BioAssay (NCI).
